Ref: patent US11242327B2

test: Bioavailability Test (rat pharmacokinetics); assay type: in vivo; details: male, Sprague-Dawley, in vivo, PO 30 mg/kg, PEG400, PVP, Tween 80, 0.5% CMC in water (9/0.5/0.5/90)
Structures can show the parent of a compound that is named as a salt.
quantity kind: Cmax

{"columns": ["molecule", "result"],
 "data": [
  ["CC(F)(F)c1csc(C23CC(N)(C2)C3)n1 [Compound 25, hydrochloride]", "24 µM"]
]}

###

This listing pairs molecules with measured log10 of Vd.
Experiment: Bioavailability Test (rat pharmacokinetics)
Assay type: in vivo
Conditions: male, Sprague-Dawley, in vivo, IV 3 mg/kg, 0.9% saline, read-out: Vdss
Description: Oral bioavailability of compounds of Formulae (Ie), (Ih), (Ik), and (Ir), or a pharmaceutically acceptable salt of any of the foregoing, were evaluated in fasted male Sprague-Dawley (SD) rats weighing 200-225g. Compounds were dosed at 3 mg/kg (IV) and 30 mg/kg (PO). Unless otherwise noted, compounds were dissolved in 0.9% saline for IV dosing and 100% sterile water for PO dosing. Pharmacokinetic parameters were determined using Phoenix WinNonlin (v7.0). […]
quantity kind: log10 of Vd (log10 of the value in L/kg)

{"columns": ["smiles repr", "log10 of Vd"],
 "data": [
  ["Cc1sc(C23CC(N)(C2)C3)nc1C(F)(F)F.Cl", 0.56],
  ["Cl.O=C(O)CNC12CC(C(F)(F)F)(C1)C2", -0.10],
  ["O=C(CO)NC12CC(C(F)(F)F)(C1)C2", 0.40],
  ["Cl.NC12CC(c3cccc(C(F)(F)F)n3)(C1)C2", 1.31],
  ["Cl.NC12CC(c3nc(C(F)(F)F)cs3)(C1)C2", 0.15]
]}

###

assay: Bioavailability Test (rat pharmacokinetics); assay type: in vivo; conditions: male, Sprague-Dawley, in vivo, PO 30 mg/kg, sterile water
quantity kind: half-life

{"columns": ["molecule", "result"],
 "data": [
  ["Cl.NC12CC(c3nc(C(F)(F)F)cs3)(C1)C2 [Compound 1]", "5.6 h"],
  ["Cl.O=C(O)CNC12CC(C(F)(F)F)(C1)C2 [Compound 6]", "1.6 h"],
  ["Cc1sc(C23CC(N)(C2)C3)nc1C(F)(F)F.Cl [Compound 2]", "2.4 h"],
  ["Cl.NC12CC(c3cccc(C(F)(F)F)n3)(C1)C2 [Compound 13]", "6.8 h"],
  ["O=C(CO)NC12CC(C(F)(F)F)(C1)C2 [Compound 7]", "2.5 h"]
]}

###

experiment: Bioavailability Test (rat pharmacokinetics); type: in vivo; conditions: male, Sprague-Dawley, in vivo, IV 3 mg/kg, DMSO, PEG400, and 30% HPβCD (5/20/75)
Counter-ions that a name gives are not always drawn.
quantity kind: AUC(0-inf)

{"columns": ["compound", "result"],
 "data": [
  ["CC(F)(F)c1csc(C23CC(N)(C2)C3)n1 [Compound 25, hydrochloride]", "13 µM·h"]
]}

###

assay: Bioavailability Test (rat pharmacokinetics); assay type: in vivo; conditions: male, Sprague-Dawley, in vivo, IV 3 mg/kg, DMSO, PEG400, and 30% HPβCD (5/20/75), read-out: Vdss
Where a name gives a salt, the structure may show the parent alone.

{"columns": ["compound", "Vd [L/kg]"],
 "data": [
  ["CC(F)(F)c1csc(C23CC(N)(C2)C3)n1 [Compound 25, hydrochloride]", 3.2]
]}

###

assay: Bioavailability Test (rat pharmacokinetics); type: in vivo; conditions: male, Sprague-Dawley, in vivo, PO 30 mg/kg, sterile water
quantity kind: AUC(0-inf) (µM·h)

{"columns": ["compound", "quantity kind", "unit tag", "recorded number"],
 "data": [
  ["Cl.NC12CC(c3cccc(C(F)(F)F)n3)(C1)C2 [Compound 13]", "AUC(0-inf)", "µM·h", 35],
  ["O=C(CO)NC12CC(C(F)(F)F)(C1)C2 [Compound 7]", "AUC(0-inf)", "µM·h", 119],
  ["Cl.NC12CC(c3nc(C(F)(F)F)cs3)(C1)C2 [Compound 1]", "AUC(0-inf)", "µM·h", 277],
  ["Cc1sc(C23CC(N)(C2)C3)nc1C(F)(F)F.Cl [Compound 2]", "AUC(0-inf)", "µM·h", 29],
  ["Cl.O=C(O)CNC12CC(C(F)(F)F)(C1)C2 [Compound 6]", "AUC(0-inf)", "µM·h", 29]
]}

###

assay: Bioavailability Test (rat pharmacokinetics); type: in vivo; conditions: male, Sprague-Dawley, in vivo, PO 30 mg/kg, PEG400, PVP, Tween 80, 0.5% CMC in water (9/0.5/0.5/90), read-out: AUC24h
Where a name gives a salt, the structure may show the parent alone.

{"columns": ["compound", "AUC(0-t), µM·h"],
 "data": [
  ["CC(F)(F)c1csc(C23CC(N)(C2)C3)n1 [Compound 25, hydrochloride]", 144]
]}

###

assay: Bioavailability Test (rat pharmacokinetics); assay type: in vivo; conditions: male, Sprague-Dawley, in vivo, PO 30 mg/kg, sterile water
quantity kind: Tmax (min)

{"columns": ["compound", "quantity kind", "unit tag", "recorded number"],
 "data": [
  ["Cc1sc(C23CC(N)(C2)C3)nc1C(F)(F)F.Cl [Compound 2]", "Tmax", "min", 60],
  ["Cl.O=C(O)CNC12CC(C(F)(F)F)(C1)C2 [Compound 6]", "Tmax", "min", 13.2],
  ["O=C(CO)NC12CC(C(F)(F)F)(C1)C2 [Compound 7]", "Tmax", "min", 11.4],
  ["Cl.NC12CC(c3nc(C(F)(F)F)cs3)(C1)C2 [Compound 1]", "Tmax", "min", 18],
  ["Cl.NC12CC(c3cccc(C(F)(F)F)n3)(C1)C2 [Compound 13]", "Tmax", "min", 36]
]}

###

experiment: Bioavailability Test (rat pharmacokinetics); type: in vivo; settings: male, Sprague-Dawley, in vivo, PO 30 mg/kg, sterile water
// reported Cmax for each item listed
quantity kind: Cmax (µM)

{"columns": ["compound", "recorded number"],
 "data": [
  ["Cl.NC12CC(c3cccc(C(F)(F)F)n3)(C1)C2 [Compound 13]", 11],
  ["O=C(CO)NC12CC(C(F)(F)F)(C1)C2 [Compound 7]", 67],
  ["Cl.O=C(O)CNC12CC(C(F)(F)F)(C1)C2 [Compound 6]", 32],
  ["Cc1sc(C23CC(N)(C2)C3)nc1C(F)(F)F.Cl [Compound 2]", 12],
  ["Cl.NC12CC(c3nc(C(F)(F)F)cs3)(C1)C2 [Compound 1]", 49]
]}

###

assay: Bioavailability Test (rat pharmacokinetics); type: in vivo; details: male, Sprague-Dawley, in vivo, IV 3 mg/kg, DMSO, PEG400, and 30% HPβCD (5/20/75)
Structures can show the parent of a compound that is named as a salt.

{"columns": ["molecule", "clearance (mL/min/kg)"],
 "data": [
  ["CC(F)(F)c1csc(C23CC(N)(C2)C3)n1 [Compound 25, hydrochloride]", 17]
]}

###

experiment: Bioavailability Test (rat pharmacokinetics); format: in vivo; settings: male, Sprague-Dawley, in vivo, PO 30 mg/kg, PEG400, PVP, Tween 80, 0.5% CMC in water (9/0.5/0.5/90)
Counter-ions that a name gives are not always drawn.

{"columns": ["compound", "unit tag", "Tmax"],
 "data": [
  ["CC(F)(F)c1csc(C23CC(N)(C2)C3)n1 [Compound 25, hydrochloride]", "h", 1.2]
]}

###

log10 clearance values for the compounds below.
assay: Bioavailability Test (rat pharmacokinetics); type: in vivo; details: male, Sprague-Dawley, in vivo, IV 3 mg/kg, 0.9% saline
quantity kind: log10 clearance (log10 of the value in mL/min/kg)

{"columns": ["smiles repr", "quantity kind", "recorded number"],
 "data": [
  ["Cc1sc(C23CC(N)(C2)C3)nc1C(F)(F)F.Cl", "log10 clearance", 1.72],
  ["Cl.O=C(O)CNC12CC(C(F)(F)F)(C1)C2", "log10 clearance", 2.08],
  ["Cl.NC12CC(c3cccc(C(F)(F)F)n3)(C1)C2", "log10 clearance", 1.86],
  ["Cl.NC12CC(c3nc(C(F)(F)F)cs3)(C1)C2", "log10 clearance", 1.04],
  ["O=C(CO)NC12CC(C(F)(F)F)(C1)C2", "log10 clearance", 1.43]
]}
